Reference for the values: a melting point compilation (Tetko et al.; mined from patent text by program, amines drawn as free bases though some values may be those of a salt)

melting point by entry:

Solved cases (3 shown):
>>> observed_measurement("COc1cccc(Sc2cccc([N+](=O)[O-])c2C#N)c1")
"144 to 147 °C"
>>> observed_measurement("CNC(=O)C(Cc1ccc(OC)cc1)NC(=O)C(CC(C)C)C(S)CC(=O)OCc1ccccc1 (stereo not drawn)")
"133 to 135 °C"
>>> observed_measurement("C=CCOc1cc(F)nc(N)n1")
"62 to 66 °C"

Request: Request the reported melting point associated with Cn1ncnc1COc1nn2c(-c3ccccc3F)nncc2c1-c1cc(F)cc(F)c1
Response: 171 to 173 °C

Request: Which melting point reading was recorded for the compound CCC(Oc1c(Cl)cccc1Cl)C(=O)OC1CC(O)C=C2C=CC(C)C(CCC3CC(O)CC(=O)O3)C21 (mixture of isomers) ?
Response: 107 to 109 °C

Request: Reported melting point, compound Cc1ccc(S(=O)(=O)N(C)c2ccc(Cl)cc2C#N)cc1 : ____
Response: 145 to 147 °C

###

MEASURED PARAMETER: melting point

Request: Would you kindly share the measured melting point for C=CCc1cc(Cl)c2ccccc2c1O ?
Response: 55 to 57 °C

Request: Field request: melting point | item: Cc1[nH]c(=O)ccc1-c1ccc(O)c([N+](=O)[O-])c1
Response: 260 to 262 °C

Request: What does the data say about its melting point? Entry: OC1=Cc2ccccc2C=Cc2cc(Br)ccc21
Response: 148 to 151 °C

Request: Data request, read-out melting point, for COc1cc(C)c2c(c1OC)CCC1C(=O)N(C)C(=O)C21 (stereo not drawn)
Response: 167 to 169 °C

Request: melting point lookup needed for CSc1nc(N)c(N)c(N)n1 , thanks.
Response: 180 to 182 °C

Request: Can you share its melting point? I mean this molecule: COc1ccc(C2=NN(C(C)C)C(=O)[C@H]3CCCC[C@@H]23)cc1OC (relative stereo)
Response: 79 to 81 °C

###

Recorded melting point by entry

Previously resolved entries follow.
>>> observed_measurement("COc1cc(C(=O)NS(=O)(=O)c2ccccc2C)ccc1Cc1cccc2ccc(CCCCC(=O)N(C)C)cc12")
"88 to 93 °C"
>>> observed_measurement("Cn1c2ccc(Cl)cc2c2c(CC(=O)N3CCCC3)nn(-c3ccccc3)c(=O)c21")
"261 to 262 °C"
>>> observed_measurement("COc1ccc(OC)c(CN[C@H]2[C@H]3CCN(C[C@@H]3C(N)=O)[C@H]2C(c2ccccc2)c2ccccc2)c1 (relative stereo)")
"127 to 129 °C"
>>> observed_measurement("N#Cc1c(-c2ccccc2)nn2ccccc12")
"138 to 139 °C"
>>> observed_measurement("CCc1nc2c(cnn2CC)c(NC2CCOCC2)c1CNC(=O)c1cccc(C(=O)NCc2cc(Cl)cc(-c3cccc(CN4CCCNCC4)c3)c2)c1")
"121 to 124 °C"

Request: What value of measured melting point is listed for Cc1oc(C=Cc2cccc(Cl)c2)nc1C(=O)O ?
Response: 213 to 214 °C

Request: Look at this molecule and give its reported melting point. Cc1nc2ccc(Cl)nn2c1Br
Response: 146 to 148 °C

Request: Which melting point is listed for Cc1ccc(S(=O)(=O)Oc2ccc(S(=O)(=O)Cc3cccnn3)cc2)cc1 ?
Response: 161 °C

Request: Data request, read-out melting point, for COC(=O)Cc1ccc(OCc2ccc3ccccc3n2)c(Cl)c1
Response: 79 °C

Request: Item CCCCN(CC)c1nc(C)[nH]c2c(-c3ccc(Cl)cc3Cl)nc(C)c1-2 has what recorded melting point?
Response: 94 to 95 °C

Request: Look up melting point: CC(=O)N1CCc2cc(S(=O)(=O)n3c(CCC(=O)O)cc4cc(C(F)(F)F)ccc43)ccc21
Response: 205 to 207 °C

Request: Fill in: melting point of O=[N+]([O-])c1ccc(C=Cc2ccc(N3CCOCCOCCOCCOCCOCC3)cc2)c([N+](=O)[O-])c1 is ___
Response: 90 to 91 °C

Request: Tell me the measured melting point of OCCN1CCC(=C2c3sccc3CCn3ncnc32)CC1 , please.
Response: 150 °C

Request: melting point for COc1ccc(-c2cnc3c(-c4ccccc4)nc(-c4cccc(OC)c4)nc3c2)cc1 ?
Response: 131 to 132 °C

Request: Which melting point is listed for COc1cccc(F)c1-c1ccc(NC(=O)OC(C)(C)C)c([N+](=O)[O-])c1 ?
Response: 65 to 68 °C

Request: Which melting point is listed for CN(C)CCCn1nc2c(c1-c1ccccc1)CCc1ccccc1-2 ?
Response: 60 to 62 °C

Request: For the molecule CCCCCC(=O)Nc1c(C)c(C)c2c(c1C)C(c1ccc(C)cc1)C(C)(C)O2 (centres undefined) , what melting point is on record?
Response: 96 to 97 °C

Request: Given the entry COC1CCC(C2=C(O)C(=O)c3ccccc3C2=O)CC1 (centres undefined) , report its measured melting point.
Response: 152 to 155 °C

Request: What value of melting point has been recorded for this entry: CC(C)(C)c1cc(CCc2ccccc2NC(=O)NCCCCc2ccccc2)cc(C(C)(C)C)c1O
Response: 157 °C

Request: Name the recorded melting point for CCOC(=O)c1nc2n(c(=O)c1OCc1ccccc1)CCCC2 .
Response: 151 °C

Request: // melting point lookup, key: O=C(O)CCc1cn(Cc2ccc(OCc3coc(-c4ccccc4)n3)cc2)cc1-c1ccccc1
Response: 139 to 140 °C

Request: I would be grateful if you could share the reported melting point for Cc1ncn(-c2cc(F)ccc2CNC(=O)c2nc3n(c(=O)c2OCc2ccccc2)CCN3c2ccccc2)n1 .
Response: 147 to 148 °C

Request: Could you tell me which melting point is on file for CCN(CC)CCOc1ccc2cc3ccc(OCCN(CC)CC)c(Br)c3nc2c1Br ?
Response: 66 to 68 °C

Request: # melting point lookup, item Nc1onc(C(F)(F)F)c1-c1ccccc1
Response: 89 to 91 °C

###

Listed below: melting point values for each entry.

Worked set:
>>> observed_measurement("CC(C)CC(=O)Nc1c(C(=O)c2cccc(C(F)(F)F)c2)[nH]c2cc(Cl)ccc12")
"179 to 180 °C"
>>> observed_measurement("Cc1ccc(C=C2CCc3cc(OCCc4c[nH]cn4)ccc3C2=O)s1")
"69 to 70 °C"
>>> observed_measurement("O=C(O)CCC(=O)OC1CCCN(C(=O)Cn2c(=O)sc3ccc(Cl)cc32)C1 (stereo not given)")
"131 to 133 °C"
>>> observed_measurement("COc1ccc(S(=O)(=O)Nc2cc(C(=O)Nc3ccccc3)ccc2OC)cc1")
"184 to 186 °C"

Switching to the query record.
Request: Look at this compound and give its reported melting point. Cn1ncc2cc3ncc(-c4ccc(Cl)s4)nc3cc21
Response: 225 to 227 °C

###

MEASURED PARAMETER: melting point

Worked examples, 2 compounds total:
>>> observed_measurement("FC(F)(F)c1ccc(CN2CC3(COc4cc5c(cc43)CCO5)c3c(Br)cccc32)o1 (stereo not drawn)")
"182 to 184 °C"
>>> observed_measurement("C=CC(=O)Oc1c(C(C)c2cc(C(C)(C)CC)cc(C(C)(C)CC)c2O)cc(C(C)(C)CC)cc1C(C)(C)CC (stereo not drawn)")
"119 to 121 °C"

Below: the item to evaluate.
Request: What does the record list as melting point for CCOC(=O)c1cc(=O)c2ccc(OCCCCCOc3ccc(C(C)=O)c(O)c3)cc2o1 ?
Response: 136 to 137 °C

###

Below, each entry is listed alongside its reported melting point.

The examples below pair each entry with its known result.
>>> observed_measurement("C#CCCCOC(=O)NC(=O)C(c1ccccc1)c1ccccc1")
"109 °C"
>>> observed_measurement("OCc1cncn1Cc1ccccc1")
"131 to 135 °C"

Request: Item OCc1nn(-c2ccccc2)c2c1CCC2 has what recorded melting point?
Response: 94 to 95 °C

Request: Tell me the measured melting point of Cc1ccc(S(=O)(=O)Oc2c(-c3ccc(S(C)(=O)=O)cc3)cnn(-c3cccc(Cl)c3)c2=O)cc1 , please.
Response: 198 to 200 °C

Request: Param item = COC(=O)c1cc(C(C)(C)C#N)cc(C(C)(C)C#N)c1 ; retrieve measured melting point.
Response: 83 to 85 °C

Request: Need melting point, item N#CC1=C(Nc2ccccc2N)CSC1
Response: 163 °C

Request: Please give the measured melting point for this compound: Cc1c(CC2CCc3c(c4ccccc4n3Cc3ccccc3)C2=O)ncn1C(c1ccccc1)(c1ccccc1)c1ccccc1 (stereo not drawn)
Response: 78 to 80 °C

Request: # lookup: melting point of O=C1Nc2ccc(NC(=O)c3cccn(-c4ccc(F)cc4)c3=O)cc2/C1=C/c1ccc[nH]1
Response: > 300 °C

###

Each item that follows carries a reported melting point.

Some solved cases for reference:
>>> observed_measurement("COC(=O)c1ccccc1/C=C/CO")
"75 to 80 °C"
>>> observed_measurement("COC(=O)c1ccc2cc(OC)ccc2n1")
"129 °C"
>>> observed_measurement("COc1ccc2cc(C(C)C(=O)OCC(=O)OCCO)ccc2c1 (stereo unspecified)")
"87 to 90 °C"
>>> observed_measurement("O=C(O)CN1CCN(CCNC(=O)c2cc3ccc(C4OC(CO)C(O)C(O)C4O)cc3oc2=O)CC1 (stereo unspecified)")
"140 to 143 °C"
>>> observed_measurement("C=CCc1c(OCC(O)CN2CCN(Cc3ccc(Cl)cc3)CC2)ccc2c(OCc3ccccc3)cc(=O)oc12 (stereo unspecified)")
"155 to 157 °C"

Request: For the compound shown here, COc1cc(CCCC2SC(=O)NC2=O)cc(OC)c1OCc1ccccc1 (stereo unspecified) , give the reported melting point.
Response: 101 to 102 °C

Request: Give the measured melting point of Cc1nccc2c1ccc(=O)n2C .
Response: 203 to 205 °C

Request: Query: melting point; subject: O=C(Oc1ccc(Oc2ccccc2)cc1)N1CCC(O)CC1
Response: 130 to 133 °C

Request: Reported melting point, compound CC(C)(CCC(=O)N[C@H](Cc1ccccc1)C(=O)NCCCCNC(=N)N)C(=O)O : ____
Response: 169 °C

Request: Fill in: melting point of Clc1ccc(N2CCN(Cc3n[nH]c4ccccc34)CC2)cc1 is ___
Response: 223 to 224 °C

Request: Look up melting point for this compound: CCOC(=O)CC1CCC(CCNS(=O)(=O)c2ccc(Br)cc2)CC1 (stereo unspecified)
Response: 62 °C

Request: Fill blank: measured melting point of the compound Cc1nc(-c2cc(C(C)(C)C)c3c(c2)C(C)(C)CO3)no1 is ____.
Response: 81 to 82 °C

Request: Requested read-out: melting point. Entry: O=C(Nc1cccc(-c2nnn[nH]2)c1)C(=O)N1CCC(Cc2ccccc2)CC1
Response: 159 to 161 °C

Request: Consider the compound Cc1ccncc1Cn1nnnc1-c1cc(Cl)ccc1Cl and give its measured melting point.
Response: 169 to 171 °C

Request: Entry under review: O=C(O)CN1C(=O)c2cccc([N+](=O)[O-])c2C1=O . Reported melting point?
Response: 200 to 202 °C

Request: Can you look up the measured melting point of Cc1c(S(=O)(=O)c2ccc(=O)[nH]n2)oc2cc(Cl)ccc12 for me?
Response: > 240 °C
